tested system: rat Adrenergic Receptor, Beta (Adrb), Non-selective Binding, Adrb1 (gene 24925) (UniProt P18090)
Sequence (P18090 whole entry, looked up): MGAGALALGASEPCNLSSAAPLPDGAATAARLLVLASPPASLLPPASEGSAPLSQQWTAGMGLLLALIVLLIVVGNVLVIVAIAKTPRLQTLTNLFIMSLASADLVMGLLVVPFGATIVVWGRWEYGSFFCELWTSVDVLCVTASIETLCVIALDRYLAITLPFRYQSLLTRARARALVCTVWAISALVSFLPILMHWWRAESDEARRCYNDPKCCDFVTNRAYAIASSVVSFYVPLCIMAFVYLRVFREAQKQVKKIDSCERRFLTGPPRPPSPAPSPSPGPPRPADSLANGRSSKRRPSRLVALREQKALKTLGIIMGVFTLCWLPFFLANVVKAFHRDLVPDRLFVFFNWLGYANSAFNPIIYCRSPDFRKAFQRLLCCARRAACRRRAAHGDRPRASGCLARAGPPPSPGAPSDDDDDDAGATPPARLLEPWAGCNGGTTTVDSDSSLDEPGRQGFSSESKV
assay remarks: NVS_GPCR_rAdrb_NonSelective: NovaScreen (NVS) G Protein-Coupled Receptor Assay for rat Adrenergic Receptor, Beta (Adrb), Non-selective Binding (AID 2283298)
Results filed as inconclusive are left out. The source made the active and inactive calls. Rule for the calls: active = hit-call score of the fitted dose curve at least 0.9, where 1 is the maximum; inconclusive = response in the unintended direction; inactive = score below 0.9.
Hi! Could you answer with just one of these? True (active), False (inactive)

Reference set (4 entries):
| compound | classification |
| --- | --- |
| Cc1nc(-c2ccc3c(c2)CCN(CCC2CCC(NC(=O)/C=C/c4ccc(F)cc4)CC2)CC3)no1 (stereo not given) | False |
| CNCc1cc(F)ccc1Oc1ccc(Cl)c(Cl)c1 | True |
| CC(C)c1ccc(C(=O)N=C(N)N)cc1S(C)(=O)=O | False |
| Oc1ccc2c(c1)OC[C@@H](N1CCC(O)(c3ccc(F)cc3)CC1)[C@H]2O | True |

State the result this test recorded for CC(=O)C(C)=CC1C(C)=CCCC1(C)C (stereo not given) .
False

The values you see were collected from PubChem BioAssay (EPA / NIEHS).
